- Test system: production and secretion of NGF in mouse L-M cells
- experimentalDetails: Promoting activity for the production and secretion of NGF in mouse L-M cells (ELISA of medium after 24 h)
- Assay type: cell-based
- testParameters: Table 1; L-M cells; sample concentration 0.2 mM; 24 hours; mean of four determinations; control 0.33
Mark class 1 for reported NGF Concentration of 3 ng/well or greater; mark class 0 for anything smaller.

The following compounds have reported results that may help.
> print(dat)
                            smilesdata    label
1             CC(=O)NCCCc1ccc(O)c(O)c1  class 0
2  CC(=O)NCCc1ccc(OC(C)=O)c(OC(C)=O)c1  class 1

Exercise: Check if NGF Concentration >= 3 ng/well (inclusive). Item: CCCCNCCCc1ccc(O)c(O)c1
Solution: class 0

Exercise: Check if NGF Concentration >= 3 ng/well (inclusive). Item: CC(=O)NCc1ccc(O)c(O)c1
Solution: class 0

Exercise: Check if NGF Concentration >= 3 ng/well (inclusive). Item: CC(=O)NCCCc1ccc(OC(C)=O)c(OC(C)=O)c1
Solution: class 0

Exercise: Check if NGF Concentration >= 3 ng/well (inclusive). Item: CCCNCCc1ccc(O)c(O)c1
Solution: class 1

Exercise: Check if NGF Concentration >= 3 ng/well (inclusive). Item: CC(=O)Oc1ccc(CCN(C)C(C)=O)cc1OC(C)=O
Solution: class 1

Exercise: Check if NGF Concentration >= 3 ng/well (inclusive). Item: CCC(=O)N(C)CCc1ccc(O)c(O)c1
Solution: class 1
